The reported numbers originate from patent US20230116972A1.

- targetOrTestSystem: human CD38 (Homo sapiens, UniProt P28907)
- Sequence (P28907 1-300): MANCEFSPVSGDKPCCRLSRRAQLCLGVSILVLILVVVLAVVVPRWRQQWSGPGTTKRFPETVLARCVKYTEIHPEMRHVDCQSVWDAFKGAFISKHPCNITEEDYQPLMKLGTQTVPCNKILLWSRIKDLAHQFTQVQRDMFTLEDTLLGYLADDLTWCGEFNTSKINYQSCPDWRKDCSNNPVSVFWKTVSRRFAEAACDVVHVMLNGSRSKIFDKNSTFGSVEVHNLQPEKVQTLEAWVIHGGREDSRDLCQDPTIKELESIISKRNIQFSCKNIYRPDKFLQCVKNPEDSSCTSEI
- testDescription: human recombinant CD38 enzyme assay (hydrolysis of NAD+)
- testContext: human recombinant CD38, 0.4 nM enzyme, 62.5 μM NAD+; read-out: hCD38 BioChem IC50
Attribute: IC50
Provide a numeric answer, followed by its unit.

Solved entries:
>  <molecule>
Cn1cncc1-c1ccnc(C(=O)N[C@H]2CC[C@H](O)CC2)n1 [Compound 256]

>  <IC50>
68.4 nM

$$$$
>  <molecule>
Cn1cncc1-c1nc(C(=O)N[C@H]2CC[C@H](NCC(F)(F)F)CC2)cc(C2CCOCC2)n1 [Compound 300]

>  <IC50>
15.7 nM

$$$$
>  <molecule>
Cn1cncc1-c1ccnc(C(=O)N[C@H]2CC[C@H](OCc3ccccc3)CC2)n1 [Compound 312]

>  <IC50>
26.5 nM

$$$$

Now turn to the next molecule.
Which IC50 value is on record for O=C(N[C@H]1CC[C@H](O)CC1)c1nc(C(F)F)cc(-n2ccnc2)n1 [Compound 349] ? 128 nM

====

- targetOrTestSystem: endogenous CD38 in HL60 cells (Homo sapiens, UniProt P28907)
- Construct: endogenous in cells; host or cells: HL60 (leukemic cells, treated with all-trans retinoic acid)
- testDescription: cellular CD38 assay in HL60 cells (cellular NAD levels)
- Format: cell-based
- testContext: all-trans retinoic acid, 24 hours, read-out: hCD38 HL60 ATRA NAD Cell Diaphorase IC50
metric: IC50 (nM)
Give the value in nM but do not write nM after it.

Solved entries:
>  <smilesData>
Cn1cncc1-c1ccnc(C(=O)N[C@H]2C[C@H](C(C)(C)O)C2)n1

>  <measurement>
11000

$$$$
>  <smilesData>
O=C(Nc1ccc(C(F)(F)F)nc1)c1cncc(-n2ccnc2)n1

>  <measurement>
522

$$$$
>  <smilesData>
COc1ccc(NC(=O)c2cccc(-n3ccnc3)n2)cn1

>  <measurement>
468

$$$$
>  <smilesData>
O=C(N[C@H]1CC[C@H](OC(F)(F)F)CC1)c1nccc(-n2ccnc2)n1

>  <measurement>
6270

$$$$
>  <smilesData>
NC(=O)c1cncn1-c1cccc(C(=O)Nc2ccc(C(F)(F)F)nc2)n1

>  <measurement>
3430

$$$$

Which IC50 value is on record for Cc1cc(C(=O)Nc2ccc(C(F)(F)F)nc2)nc(-n2ccnc2)n1 ? 350

Which IC50 value is on record for Cn1cncc1-c1nc(C(=O)N[C@H]2C[C@H](Oc3ccccc3)C2)cc(C2CCOCC2)n1 ? 2620

Which IC50 value is on record for Cn1cncc1-c1nccc(C(=O)N[C@H]2CC[C@H](C(F)F)CC2)n1 ? 770

Which IC50 value is on record for CO[C@H]1CC[C@H](NC(=O)c2cncc(-c3cncn3C)n2)CC1 ? 2080

Which IC50 value is on record for CC(C)(O)c1ccc(NC(=O)c2nccc(-n3ccnc3)n2)cn1 ? 838

Which IC50 value is on record for Cc1cc(C(=O)Nc2cccnc2)nc(-c2cncs2)c1 ? 3570

Which IC50 value is on record for CC(C)(O)[C@H]1CC[C@H](NC(=O)c2cccc(-n3ccnc3)n2)CC1 ? 3020

Which IC50 value is on record for O=C(Nc1cccnc1)c1cccc(-c2cncs2)n1 ? 8050

Which IC50 value is on record for Cc1cc(-c2cncn2C)nc(C(=O)Nc2ccc(C(F)F)nc2)n1 ? 229

Which IC50 value is on record for O=C(Nc1cccnc1)c1cc(C(F)(F)F)cc(-n2ccnc2)n1 ? 959

Which IC50 value is on record for Cn1cncc1-c1ccnc(C(=O)Nc2ccc(C(F)(F)F)nc2)n1 ? 349

Which IC50 value is on record for Cn1cncc1-c1nc(C(=O)N[C@H]2CC[C@H](NCC(F)(F)F)CC2)cc(C2CCOCC2)n1 ? 2120

Which IC50 value is on record for O=C(Nc1ccc(C(F)(F)F)nc1)c1cc(-n2ccnc2)ccn1 ? 8690

====

Attribute: activity at 50 µM
- targetOrTestSystem: CYP1A2 (Homo sapiens)
- Construct: from tissue; host or cells: human liver microsomes (pooled in the time-dependent assay)
- Sequence (P05177 whole entry): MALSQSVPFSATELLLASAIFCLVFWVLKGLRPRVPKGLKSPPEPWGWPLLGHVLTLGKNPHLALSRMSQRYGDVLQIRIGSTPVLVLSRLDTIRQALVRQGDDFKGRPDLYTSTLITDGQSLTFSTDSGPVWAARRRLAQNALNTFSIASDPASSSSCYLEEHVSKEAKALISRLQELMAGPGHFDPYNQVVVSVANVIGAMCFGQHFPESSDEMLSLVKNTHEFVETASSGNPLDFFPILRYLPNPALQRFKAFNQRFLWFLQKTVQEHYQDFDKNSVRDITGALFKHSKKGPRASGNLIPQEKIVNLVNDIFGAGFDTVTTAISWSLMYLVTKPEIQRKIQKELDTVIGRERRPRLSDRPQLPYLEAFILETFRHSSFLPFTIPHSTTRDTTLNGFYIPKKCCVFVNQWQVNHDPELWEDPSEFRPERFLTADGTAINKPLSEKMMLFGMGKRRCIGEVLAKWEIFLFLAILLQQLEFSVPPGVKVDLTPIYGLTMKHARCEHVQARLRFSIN
- testDescription: direct inhibition of CYP450 in human liver microsomes
- Type: in vitro ADME
- testContext: 50 uM, human liver microsomes, % of non-inhibited control; read-out: CYP1A2 T0 % activity
Give the value in % but do not write % after it.

>  <molecule>
CO[C@H]1CC[C@H](NC(=O)c2cc(C3CCOCC3)nc(-c3cncn3C)n2)CC1

>  <unitDescriptor>
%

>  <activity at 50 µM>
85

$$$$
>  <molecule>
Cn1cncc1-c1ccnc(C(=O)N[C@H]2CC[C@H](O)CC2)n1

>  <unitDescriptor>
%

>  <activity at 50 µM>
78

$$$$
>  <molecule>
CO[C@H]1CC[C@H](NC(=O)c2cc(C3(C)COC3)nc(-c3cncn3C)n2)CC1

>  <unitDescriptor>
%

>  <activity at 50 µM>
97

$$$$

Which activity at 50 µM value is on record for [2H]c1nc([2H])n(-c2nc(C)cc(C(=O)N[C@H]3CC[C@H](OCCOC)CC3)n2)c1[2H] [Comparator Compound A, reference compound] ? 92

Which activity at 50 µM value is on record for CO[C@H]1CC[C@H](NC(=O)c2cc(C3CCC(F)(F)CC3)nc(-c3cncn3C)n2)CC1 ? 81

====

- targetOrTestSystem: CYP2C19 (Homo sapiens)
- Construct: from tissue; host or cells: human liver microsomes (pooled in the time-dependent assay)
- Sequence (P33261 whole entry): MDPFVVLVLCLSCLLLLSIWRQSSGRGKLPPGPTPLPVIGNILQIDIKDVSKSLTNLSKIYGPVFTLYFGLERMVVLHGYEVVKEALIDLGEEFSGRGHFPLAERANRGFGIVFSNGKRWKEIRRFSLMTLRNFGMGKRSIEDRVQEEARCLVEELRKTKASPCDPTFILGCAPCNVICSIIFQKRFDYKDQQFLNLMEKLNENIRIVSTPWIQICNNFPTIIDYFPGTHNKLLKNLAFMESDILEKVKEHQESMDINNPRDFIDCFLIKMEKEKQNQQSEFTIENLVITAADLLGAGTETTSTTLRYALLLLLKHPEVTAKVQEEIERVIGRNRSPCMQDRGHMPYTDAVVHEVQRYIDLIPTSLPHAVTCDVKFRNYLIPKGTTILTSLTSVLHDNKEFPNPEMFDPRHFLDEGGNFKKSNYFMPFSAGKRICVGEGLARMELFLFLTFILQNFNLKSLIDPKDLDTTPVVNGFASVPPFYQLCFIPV
- testDescription: direct inhibition of CYP450 in human liver microsomes
- Format: in vitro ADME
- testContext: 3 uM, % of non-inhibited control, read-out: CYP2C19 T0 % activity
- Protocol: Direct inhibition: […] A Perspective of the Pharmaceutical Research and Manufacturers of America”, Drug Metabolism and Disposition, 37 (7): 1355, 2009). For 3A4, the % activity was measured using both midazolam and testosterone as probes. Each compound at 3, 10, and 50 μM was incubated with HLM, NADPH and CYP isoenzyme specific probe substrates at 37° C. Inhibition of the probe substrate metabolism was quantified using LC/MS/MS. […]
Respond with true for activity at 3 µM values of 90% and above, false for values below.

Worked examples, 4 compounds total:
>  <compound>
CC(C)(O)c1ccc(NC(=O)c2nccc(-n3ccnc3)n2)cn1

>  <cat>
true

$$$$
>  <compound>
CO[C@H]1CC[C@H](NC(=O)c2cc(C3CCC(F)(F)CC3)nc(-c3cncn3C)n2)CC1

>  <cat>
false

$$$$
>  <compound>
CO[C@H]1CC[C@H](NC(=O)c2cc(C3(C)COC3)nc(-c3cncn3C)n2)CC1

>  <cat>
true

$$$$
>  <compound>
Cn1cncc1-c1ccnc(C(=O)N[C@H]2CC[C@H](O)CC2)n1

>  <cat>
true

$$$$

For the next question, use this compound.
In plain terms: is recorded activity at 3 µM at least 90% for [2H]c1nc([2H])n(-c2nc(C)cc(C(=O)N[C@H]3CC[C@H](OCCOC)CC3)n2)c1[2H] [Comparator Compound A, reference compound] ? false

====

- targetOrTestSystem: CYP2C9 (Homo sapiens)
- Construct: from tissue; host or cells: human liver microsomes (pooled in the time-dependent assay)
- Sequence (P11712 whole entry): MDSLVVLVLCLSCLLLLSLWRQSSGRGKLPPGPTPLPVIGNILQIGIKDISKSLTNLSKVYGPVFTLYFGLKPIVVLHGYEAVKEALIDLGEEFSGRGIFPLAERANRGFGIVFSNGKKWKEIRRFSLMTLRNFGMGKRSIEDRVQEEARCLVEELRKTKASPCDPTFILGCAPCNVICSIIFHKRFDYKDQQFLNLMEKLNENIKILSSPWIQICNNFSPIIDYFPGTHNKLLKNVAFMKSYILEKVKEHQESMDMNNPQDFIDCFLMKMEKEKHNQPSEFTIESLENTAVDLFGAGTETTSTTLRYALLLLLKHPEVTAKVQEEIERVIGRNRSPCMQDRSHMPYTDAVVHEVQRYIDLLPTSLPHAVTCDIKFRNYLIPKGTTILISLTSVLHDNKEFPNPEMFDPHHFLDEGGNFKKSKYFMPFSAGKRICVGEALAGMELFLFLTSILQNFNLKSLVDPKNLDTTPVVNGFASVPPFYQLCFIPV
- testDescription: time dependent inhibition of CYP450 in pooled human microsomes
- Type: in vitro ADME
- testContext: pre-incubation 0 min
- Method: Time dependent inhibition: An assessment of the time-dependent Inhibitory potential of test compounds against the principal human cytochrome P450 isozymes was carried out using standard methods (Grimm et al, “The Conduct of in Vitro Studies to Address Time-Dependent Inhibition of Drug-Metabolizing Enzymes: A Perspective of the Pharmaceutical Research and Manufacturers of America”, Drug Metabolism and Disposition, 37 (7): 1355, 2009). […] LC-MS/MS was used to quantify metabolite formation. […]
pIC50: −log10 of the molar value.
metric: pIC50

Which pIC50 value is on record for CO[C@H]1CC[C@H](NC(=O)c2nccc(-c3cncn3C)n2)CC1 [Compound 148] ? < 4.52

====

- targetOrTestSystem: human CD38 (Homo sapiens, UniProt P28907)
- testDescription: human recombinant CD38 enzyme assay (hydrolysis of NAD+)
- Type: biochemical
- testContext: human recombinant CD38, 0.4 nM enzyme, 62.5 μM NAD+; read-out: hCD38 BioChem IC50
pIC50: −log10 of the molar value.
Respond with true (1) for pIC50 values of 8 and above, false (0) for values below.

>  <smilesData>
CO[C@H]1C[C@H](NC(=O)c2cccc(-n3ccnc3)n2)C1

>  <cat>
false (0)

$$$$
>  <smilesData>
Cn1cncc1-c1ncc(Cl)c(C(=O)N[C@H]2CC[C@H](OC(F)(F)F)CC2)n1

>  <cat>
false (0)

$$$$
>  <smilesData>
CO[C@@H]1CC[C@@H](NC(=O)c2cccc(-n3ccnc3)n2)C1

>  <cat>
false (0)

$$$$
>  <smilesData>
CO[C@H]1CC[C@H](NC(=O)c2nc(-c3cncn3C)cnc2N)CC1

>  <cat>
false (0)

$$$$
>  <smilesData>
COc1cc(C(=O)Nc2ccc(C(F)(F)F)nc2)nc(-n2ccnc2)c1

>  <cat>
true (1)

$$$$
>  <smilesData>
COCCO[C@H]1CC[C@H](NC(=O)c2cc(C(F)(F)F)nc(-c3cncn3C)n2)CC1

>  <cat>
false (0)

$$$$

In plain terms: is recorded pIC50 at least 8 for Cn1cncc1-c1cc(C(F)F)nc(C(=O)N[C@H]2CC[C@H](O)CC2)n1 ? false (0)

In plain terms: is recorded pIC50 at least 8 for Cn1cncc1-c1nc(C(=O)Nc2ccc(C(F)(F)F)nc2)cc(C2CC3(COC3)C2)n1 ? true (1)

In plain terms: is recorded pIC50 at least 8 for Cn1cncc1-c1ccnc(C(=O)N[C@H]2C[C@H](c3ccccc3F)C2)n1 ? false (0)

In plain terms: is recorded pIC50 at least 8 for Cc1cnc(-c2cncn2C)nc1C(=O)N[C@H]1CC[C@H](O)CC1 ? false (0)

In plain terms: is recorded pIC50 at least 8 for Cn1cncc1-c1nc(C(=O)N[C@H]2CC[C@H](C)CC2)cc(C(F)(F)F)n1 ? false (0)

In plain terms: is recorded pIC50 at least 8 for CCO[C@H]1C[C@H](NC(=O)c2nccc(-n3ccnc3)n2)C1 ? false (0)
